Where these numbers come from: patent US20150018301A1

Target: LRRK2 G2019S (Homo sapiens, UniProt Q5S007, G2019S)
Sequence (Q5S007 whole entry G2019S): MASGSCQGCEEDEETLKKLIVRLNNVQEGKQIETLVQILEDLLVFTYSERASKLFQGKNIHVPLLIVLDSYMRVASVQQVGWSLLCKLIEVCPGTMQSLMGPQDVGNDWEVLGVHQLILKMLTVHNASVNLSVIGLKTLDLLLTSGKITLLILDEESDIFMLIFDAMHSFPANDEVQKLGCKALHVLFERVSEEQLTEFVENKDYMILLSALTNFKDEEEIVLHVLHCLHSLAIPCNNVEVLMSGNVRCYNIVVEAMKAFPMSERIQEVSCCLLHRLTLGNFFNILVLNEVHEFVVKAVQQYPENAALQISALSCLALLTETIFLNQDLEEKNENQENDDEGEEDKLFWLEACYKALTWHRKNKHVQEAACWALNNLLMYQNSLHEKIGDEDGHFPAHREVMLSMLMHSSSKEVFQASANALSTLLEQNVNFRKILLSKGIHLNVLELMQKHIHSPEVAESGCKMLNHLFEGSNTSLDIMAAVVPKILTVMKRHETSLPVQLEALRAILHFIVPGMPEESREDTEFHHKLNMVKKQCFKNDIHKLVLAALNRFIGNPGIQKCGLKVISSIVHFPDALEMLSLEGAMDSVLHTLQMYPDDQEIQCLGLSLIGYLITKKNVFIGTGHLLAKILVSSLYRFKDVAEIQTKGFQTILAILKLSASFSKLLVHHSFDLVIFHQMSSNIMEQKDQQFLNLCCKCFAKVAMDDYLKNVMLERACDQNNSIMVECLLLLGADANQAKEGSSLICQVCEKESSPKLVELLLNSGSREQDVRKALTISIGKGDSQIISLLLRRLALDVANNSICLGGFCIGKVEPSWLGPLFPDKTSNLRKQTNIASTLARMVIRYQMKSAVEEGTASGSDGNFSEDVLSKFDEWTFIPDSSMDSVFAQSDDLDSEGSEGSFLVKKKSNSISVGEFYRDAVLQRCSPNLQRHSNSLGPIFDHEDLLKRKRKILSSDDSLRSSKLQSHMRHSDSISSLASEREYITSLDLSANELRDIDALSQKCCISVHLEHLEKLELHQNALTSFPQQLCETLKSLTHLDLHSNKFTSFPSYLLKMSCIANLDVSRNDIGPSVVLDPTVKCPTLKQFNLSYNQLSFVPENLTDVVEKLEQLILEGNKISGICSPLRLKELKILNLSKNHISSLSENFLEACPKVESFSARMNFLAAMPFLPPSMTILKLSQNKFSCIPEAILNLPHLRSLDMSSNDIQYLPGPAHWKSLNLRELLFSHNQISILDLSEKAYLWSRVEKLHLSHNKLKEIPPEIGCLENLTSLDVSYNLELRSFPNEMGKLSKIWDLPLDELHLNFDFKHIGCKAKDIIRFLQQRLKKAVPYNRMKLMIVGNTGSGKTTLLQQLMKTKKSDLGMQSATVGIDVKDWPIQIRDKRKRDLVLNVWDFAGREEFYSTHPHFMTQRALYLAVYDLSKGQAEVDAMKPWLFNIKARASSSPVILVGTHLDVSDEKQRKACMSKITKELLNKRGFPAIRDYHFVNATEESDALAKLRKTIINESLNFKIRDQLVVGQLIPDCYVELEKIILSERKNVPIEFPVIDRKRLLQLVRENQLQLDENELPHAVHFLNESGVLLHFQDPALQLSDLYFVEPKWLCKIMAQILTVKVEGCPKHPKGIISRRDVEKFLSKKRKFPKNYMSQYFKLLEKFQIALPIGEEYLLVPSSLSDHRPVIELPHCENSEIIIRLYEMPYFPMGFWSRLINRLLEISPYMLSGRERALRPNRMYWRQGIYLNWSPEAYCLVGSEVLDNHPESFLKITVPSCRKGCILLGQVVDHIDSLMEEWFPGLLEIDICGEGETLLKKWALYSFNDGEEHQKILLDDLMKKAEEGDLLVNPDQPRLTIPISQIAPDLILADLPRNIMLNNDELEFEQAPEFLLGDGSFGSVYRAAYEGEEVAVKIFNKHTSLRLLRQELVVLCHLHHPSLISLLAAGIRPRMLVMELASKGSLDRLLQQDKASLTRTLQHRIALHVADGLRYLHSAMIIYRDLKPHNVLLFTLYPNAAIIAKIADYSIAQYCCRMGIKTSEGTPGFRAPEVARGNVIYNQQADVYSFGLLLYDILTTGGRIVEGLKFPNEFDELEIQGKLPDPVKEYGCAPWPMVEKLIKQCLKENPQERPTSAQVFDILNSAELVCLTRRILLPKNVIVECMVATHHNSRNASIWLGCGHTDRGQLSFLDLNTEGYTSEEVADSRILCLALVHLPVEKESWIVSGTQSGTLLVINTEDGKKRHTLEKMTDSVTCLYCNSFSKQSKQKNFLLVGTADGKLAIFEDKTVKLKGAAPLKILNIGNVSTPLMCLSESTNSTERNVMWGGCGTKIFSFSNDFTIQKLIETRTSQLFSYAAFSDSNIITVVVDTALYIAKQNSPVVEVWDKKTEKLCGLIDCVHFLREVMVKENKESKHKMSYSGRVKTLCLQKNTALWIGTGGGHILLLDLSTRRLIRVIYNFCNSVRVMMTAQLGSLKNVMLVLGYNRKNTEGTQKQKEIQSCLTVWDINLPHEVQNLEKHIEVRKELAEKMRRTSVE
Assay: In vitro kinase assay: G2019S LRRK2 autophosphorylation
Type: biochemical
Conditions: Table 2; mean of three experiments
# maps each entry to its pIC50
As a rule, pIC50 stands for the negative log10 of the concentration, concentration in M.

In the examples that follow, each entry is paired with its recorded pIC50.
Short answer for COc1c(C=O)c(O)cc2c1C(=O)c1ccccc1C2=O [Inhibitor 22, Damnacanthal, reference compound] : pIC50 was 5.28

Short answer for O=C1c2ccccc2-c2n[nH]c3cccc1c23 [Inhibitor 68, SP600125, reference compound] : pIC50 was 5.47

Short answer for Cn1cc(C2=C(c3cn(CCCSC(=N)N)c4ccccc34)C(=O)NC2=O)c2ccccc21 [Inhibitor 33, Ro31-8220, reference compound] : pIC50 was 5.35

Kindly review the next molecule as well.
Short answer for CN(C)CCCn1cc(C2=C(c3c[nH]c4ccccc34)C(=O)NC2=O)c2ccccc21 [Inhibitor 31, GP109203X, reference compound] : pIC50 was 4.77

----------
# maps each entry to its IC50
Target: UniProt:Q38SD2
Sequence (Q38SD2 whole entry): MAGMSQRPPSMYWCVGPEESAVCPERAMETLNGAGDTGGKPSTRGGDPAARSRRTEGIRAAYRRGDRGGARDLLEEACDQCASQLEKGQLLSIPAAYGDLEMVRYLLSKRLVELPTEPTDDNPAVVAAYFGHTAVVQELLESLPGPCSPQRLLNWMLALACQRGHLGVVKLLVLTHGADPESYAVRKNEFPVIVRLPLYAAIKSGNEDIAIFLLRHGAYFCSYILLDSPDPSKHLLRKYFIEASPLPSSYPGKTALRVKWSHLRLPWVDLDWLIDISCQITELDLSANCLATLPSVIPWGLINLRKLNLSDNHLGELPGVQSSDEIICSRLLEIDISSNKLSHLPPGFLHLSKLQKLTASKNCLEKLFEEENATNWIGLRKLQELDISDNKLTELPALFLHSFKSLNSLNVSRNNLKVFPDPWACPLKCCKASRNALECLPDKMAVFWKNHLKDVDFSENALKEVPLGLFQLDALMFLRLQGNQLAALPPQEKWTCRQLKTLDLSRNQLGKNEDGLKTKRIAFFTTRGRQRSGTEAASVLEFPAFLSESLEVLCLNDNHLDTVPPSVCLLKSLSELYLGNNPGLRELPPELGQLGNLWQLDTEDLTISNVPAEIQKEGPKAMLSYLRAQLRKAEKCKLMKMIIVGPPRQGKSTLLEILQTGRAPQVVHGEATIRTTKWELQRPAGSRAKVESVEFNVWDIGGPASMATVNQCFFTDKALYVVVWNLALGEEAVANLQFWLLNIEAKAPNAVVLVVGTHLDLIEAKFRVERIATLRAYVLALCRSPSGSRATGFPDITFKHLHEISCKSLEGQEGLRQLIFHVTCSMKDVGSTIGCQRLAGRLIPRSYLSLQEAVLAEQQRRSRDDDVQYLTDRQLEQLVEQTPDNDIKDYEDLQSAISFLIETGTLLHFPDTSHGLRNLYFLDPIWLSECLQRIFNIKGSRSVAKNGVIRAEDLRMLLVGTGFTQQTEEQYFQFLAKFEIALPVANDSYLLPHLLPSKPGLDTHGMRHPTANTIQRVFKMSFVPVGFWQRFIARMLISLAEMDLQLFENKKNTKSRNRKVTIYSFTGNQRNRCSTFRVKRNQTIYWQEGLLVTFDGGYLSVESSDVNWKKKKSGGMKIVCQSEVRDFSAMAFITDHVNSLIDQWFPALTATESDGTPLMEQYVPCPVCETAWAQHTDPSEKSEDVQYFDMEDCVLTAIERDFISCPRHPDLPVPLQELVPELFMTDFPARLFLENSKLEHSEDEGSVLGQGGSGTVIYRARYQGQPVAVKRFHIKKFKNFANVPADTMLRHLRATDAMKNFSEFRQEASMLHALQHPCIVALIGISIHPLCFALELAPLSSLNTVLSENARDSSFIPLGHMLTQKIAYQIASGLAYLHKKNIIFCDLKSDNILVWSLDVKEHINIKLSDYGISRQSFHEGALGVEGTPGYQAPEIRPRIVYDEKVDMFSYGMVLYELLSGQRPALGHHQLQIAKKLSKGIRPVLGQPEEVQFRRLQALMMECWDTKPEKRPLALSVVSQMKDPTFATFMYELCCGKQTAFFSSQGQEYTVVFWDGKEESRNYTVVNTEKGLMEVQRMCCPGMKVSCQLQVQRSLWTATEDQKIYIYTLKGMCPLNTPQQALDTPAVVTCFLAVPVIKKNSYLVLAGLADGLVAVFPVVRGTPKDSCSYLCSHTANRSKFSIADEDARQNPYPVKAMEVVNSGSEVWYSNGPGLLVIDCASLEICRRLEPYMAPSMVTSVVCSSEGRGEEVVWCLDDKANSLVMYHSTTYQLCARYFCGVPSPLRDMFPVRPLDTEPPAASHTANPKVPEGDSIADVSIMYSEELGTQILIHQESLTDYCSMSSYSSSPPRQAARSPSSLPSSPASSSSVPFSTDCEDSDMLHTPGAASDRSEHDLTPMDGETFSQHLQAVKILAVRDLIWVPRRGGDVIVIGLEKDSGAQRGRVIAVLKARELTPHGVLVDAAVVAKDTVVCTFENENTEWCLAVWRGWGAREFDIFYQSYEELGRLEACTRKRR
Test: In vitro kinase assay: LRRK1 autophosphorylation
Type: biochemical
Conditions: Table 3; mean of three experiments
Numeric answer only, unit nM assumed.

Short answer for O=C1Nc2ccccc2/C1=C1/Nc2ccccc2/C1=N\O [Inhibitor 70, Indirubin-3-monooxine] : IC50 was 790

Kindly review the next molecule as well.
Short answer for O=C1Nc2ccc(I)cc2/C1=C/c1cc(Br)c(O)c(Br)c1 [Inhibitor 56, GW5074] : IC50 was 730

----------
Target: LRRK2 WT (Homo sapiens, UniProt Q5S007)
Sequence (Q5S007 whole entry): as the sequence (Q5S007 whole entry G2019S) above, with S2019G counted along it
Assay: In vitro kinase assay: LRRK2 autophosphorylation
Format: biochemical
Settings: Table 2; mean of three experiments
Reported property: IC50 (µM)
Numeric answer only, unit µM assumed.

In the examples that follow, each entry is paired with its recorded IC50.
Short answer for Cn1cc(C2=C(c3cn(CCCSC(=N)N)c4ccccc34)C(=O)NC2=O)c2ccccc21 [Inhibitor 33, Ro31-8220, reference compound] : IC50 was 1.64

Short answer for O=C1c2ccccc2-c2n[nH]c3cccc1c23 [Inhibitor 68, SP600125, reference compound] : IC50 was 3.71

Short answer for COc1c(C=O)c(O)cc2c1C(=O)c1ccccc1C2=O [Inhibitor 22, Damnacanthal, reference compound] : IC50 was 19.1

Kindly review the next molecule as well.
Short answer for O=C1Nc2ccccc2/C1=C1/Nc2ccccc2/C1=N\O : IC50 was 1.75

----------
Target: LRRK2 WT (Homo sapiens, UniProt Q5S007)
Assay: In vitro kinase assay: LRRK2-mediated MBP phosphorylation
Type: biochemical
Conditions: screen at 16 μM
Reported property: effect on LRRK2-mediated phosphorylation of MBP

In the examples that follow, each entry is paired with its recorded effect on LRRK2-mediated phosphorylation of MBP.
Short answer for O=C1Nc2ccccc2/C1=C1/Nc2ccccc2/C1=N\O [Inhibitor 70, Indirubin-3-monooxine] : effect on LRRK2-mediated phosphorylation of MBP was substantially inhibited

Short answer for COc1c(C=O)c(O)cc2c1C(=O)c1ccccc1C2=O [Inhibitor 22, Damnacanthal, reference compound] : effect on LRRK2-mediated phosphorylation of MBP was substantially inhibited

Short answer for O=C1Nc2ccc(I)cc2/C1=C/c1cc(Br)c(O)c(Br)c1 [Inhibitor 56, GW5074] : effect on LRRK2-mediated phosphorylation of MBP was substantially inhibited

Short answer for Nc1ncnc2c1c(I)cn2[C@@H]1O[C@H](CO)[C@@H](O)[C@H]1O [Inhibitor 49, 5-iodo-tubercidin, reference compound] : effect on LRRK2-mediated phosphorylation of MBP was substantially inhibited

Short answer for CN(C)CCCn1cc(C2=C(c3c[nH]c4ccccc34)C(=O)NC2=O)c2ccccc21 [Inhibitor 31, GP109203X, reference compound] : effect on LRRK2-mediated phosphorylation of MBP was substantially inhibited

Short answer for O=C1c2ccccc2-c2n[nH]c3cccc1c23 [Inhibitor 68, SP600125, reference compound] : effect on LRRK2-mediated phosphorylation of MBP was substantially inhibited

Short answer for Cn1cc(C2=C(c3cn(CCCSC(=N)N)c4ccccc34)C(=O)NC2=O)c2ccccc21 [Inhibitor 33, Ro31-8220, reference compound] : effect on LRRK2-mediated phosphorylation of MBP was substantially inhibited

Kindly review the next molecule as well.
Short answer for CN[C@@H]1C[C@H]2O[C@@](C)([C@@H]1OC)n1c3ccccc3c3c4c(c5c6ccccc6n2c5c31)C(=O)NC4 [Inhibitor 6, Staurosporine, reference compound] : effect on LRRK2-mediated phosphorylation of MBP was substantially inhibited

----------
Target: LRRK2 WT (Homo sapiens, UniProt Q5S007)
Assay: In vitro kinase assay: LRRK2-mediated MBP phosphorylation
Assay type: biochemical
Conditions: compound 16 μM; 30° C., 15 min; normalized to absence of compound; mean ± S.E.M. of three experiments
Reported property: MBP phosphorylation Average ± SEM

In the examples that follow, each entry is paired with its recorded MBP phosphorylation Average ± SEM.
Given the molecule CC(=O)c1c(O)c(C)c(O)c(Cc2c(O)c3c(c(C(=O)/C=C/c4ccccc4)c2O)OC(C)(C)C=C3)c1O and test system LRRK2 WT (Homo sapiens, UniProt Q5S007), the measured MBP phosphorylation Average ± SEM is 147.2 ± 64.3 % of control

Given the molecule O=c1c(-c2ccc(O)cc2)coc2cc(O)ccc12 and test system LRRK2 WT (Homo sapiens, UniProt Q5S007), the measured MBP phosphorylation Average ± SEM is 141.0 ± 50.8 % of control

Given the molecule Cn1cnc2c(NCc3ccccc3)nc(NCCO)nc21 and test system LRRK2 WT (Homo sapiens, UniProt Q5S007), the measured MBP phosphorylation Average ± SEM is 125.3 ± 45.6 % of control

Given the molecule NCCNS(=O)(=O)c1cccc2cnccc12 and test system LRRK2 WT (Homo sapiens, UniProt Q5S007), the measured MBP phosphorylation Average ± SEM is 58.3 ± 22.9 % of control

Given the molecule O=C(O)c1cc(N(Cc2ccccc2O)Cc2cc(O)ccc2O)ccc1O and test system LRRK2 WT (Homo sapiens, UniProt Q5S007), the measured MBP phosphorylation Average ± SEM is 65.2 ± 35.5 % of control

Others:
Given the molecule N=C(N)NCCNS(=O)(=O)c1cccc2cnccc12 and test system LRRK2 WT (Homo sapiens, UniProt Q5S007), the measured MBP phosphorylation Average ± SEM is 106.7 ± 25.4 % of control

Given the molecule Nc1ncnc2c1c(I)cn2[C@@H]1O[C@H](CO)[C@@H](O)[C@H]1O [Inhibitor 49, 5-iodo-tubercidin, reference compound] and test system LRRK2 WT (Homo sapiens, UniProt Q5S007), the measured MBP phosphorylation Average ± SEM is 39.3 ± 9.9 % of control

Given the molecule Cc1ccc(-c2nn(C(C)(C)C)c3ncnc(N)c23)cc1 and test system LRRK2 WT (Homo sapiens, UniProt Q5S007), the measured MBP phosphorylation Average ± SEM is 103.6 ± 60.1 % of control

Given the molecule O=c1c(-c2ccc(O)cc2)coc2cc(O)cc(O)c12 and test system LRRK2 WT (Homo sapiens, UniProt Q5S007), the measured MBP phosphorylation Average ± SEM is 63.1 ± 66.7 % of control

----------
Target: LRRK2 WT (Homo sapiens, UniProt Q5S007)
Test: In vitro kinase assay: LRRK2 autophosphorylation
Assay type: biochemical
Conditions: compound 16 μM; phosphorylation normalized to absence of compound; mean ± S.E.M. of three experiments
Reported property: LRRK2 autophosphorylation Average ± SEM

In the examples that follow, each entry is paired with its recorded LRRK2 autophosphorylation Average ± SEM.
Short answer for Cc1ccc(S(=O)(=O)/C=C/C#N)cc1 : LRRK2 autophosphorylation Average ± SEM was 75.1 ± 12.8 % of control

Short answer for C=CC(=O)c1ccc2ccccc2c1 : LRRK2 autophosphorylation Average ± SEM was 70.7 ± 4.2 % of control

Short answer for COc1ccc(S(=O)(=O)N(CCO)c2ccccc2CN(C)C/C=C/c2ccc(Cl)cc2)cc1 : LRRK2 autophosphorylation Average ± SEM was 104.6 ± 26.6 % of control

Short answer for N#CC(C#N)=Cc1ccc(O)cc1 : LRRK2 autophosphorylation Average ± SEM was 68.6 ± 35.5 % of control

Short answer for COc1c(C=O)c(O)cc2c1C(=O)c1ccccc1C2=O [Inhibitor 22, Damnacanthal, reference compound] : LRRK2 autophosphorylation Average ± SEM was 34.7 ± 6.2 % of control

Short answer for N#CC(=C(/N)Sc1ccccc1N)/C(C#N)=C(\N)Sc1ccccc1N : LRRK2 autophosphorylation Average ± SEM was 86.9 ± 10.3 % of control

Short answer for Nc1ncnc2c1c(I)cn2[C@@H]1O[C@H](CO)[C@@H](O)[C@H]1O [Inhibitor 49, 5-iodo-tubercidin, reference compound] : LRRK2 autophosphorylation Average ± SEM was 29.4 ± 14.7 % of control

Short answer for O=c1c(-c2ccc(O)cc2)coc2cc(O)ccc12 : LRRK2 autophosphorylation Average ± SEM was 81.0 ± 31.9 % of control

Short answer for CN([C@@H](Cc1ccc(OS(=O)(=O)c2cccc3cnccc23)cc1)C(=O)N1CCN(c2ccccc2)CC1)S(=O)(=O)c1cccc2cnccc12 : LRRK2 autophosphorylation Average ± SEM was 83.1 ± 22.1 % of control

Short answer for O=P(O)(O)Cc1ccccc1 : LRRK2 autophosphorylation Average ± SEM was 68.3 ± 1.85 % of control

Others:
Short answer for O=S(=O)(c1cccc2c(Cl)cccc12)N1CCCNCC1 : LRRK2 autophosphorylation Average ± SEM was 71.6 ± 2.1 % of control

Short answer for COCc1cc(O)c(O)c(O)c1-c1c(COC)cc(O)c(O)c1O : LRRK2 autophosphorylation Average ± SEM was 79.2 ± 24.2 % of control

Short answer for CNCCNS(=O)(=O)c1cccc2cnccc12 : LRRK2 autophosphorylation Average ± SEM was 80.9 ± 3.0 % of control
